measurementName: melting point (°C)

Solved entries:
{"compound": "COc1ccccc1[C@@]1(O)[C@H](O)CC(c2ccccc2)(c2ccccc2)[C@@H]2CN(C(=O)Cc3c[nH]c4ccc(F)cc34)C[C@@H]21 (racemic)", "resultUnits": "°C", "melting point": 248}
{"compound": "O=C(Cc1ccccc1)NC(C(=O)O)C(c1ccccc1)c1ccccc1 (centres undefined)", "resultUnits": "°C", "melting point": 173}

a. CCOC(=O)COn1c2c([nH]c(=O)c1=O)CCC1=C2C=C(n2ccc(CNC(=O)C(F)(F)F)c2)CC1
b. CCOC(=O)C1=C(CC)N(CCOC(=O)c2ccccc2)C(=O)NC1c1ccccc1 (centres undefined)
Which gives the smaller melting point number: a or b ? Selection: enter the item's label.
b

Values were extracted from a melting point compilation (Tetko et al.; mined from patent text by program, amines drawn as free bases though some values may be those of a salt).
